B1: Hairpin Ribozyme (parent)
chain: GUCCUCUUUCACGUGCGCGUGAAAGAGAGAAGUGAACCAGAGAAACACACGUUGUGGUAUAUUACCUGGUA

Variants of: B1
measurementProtocol: self-cleavage, relative activity (ratio to wild type); higher = more cleavage; co-transcriptional
Please enter class 1 where self-cleavage is greater than or equal to 0.2, and class 0 where it is lower.

INSERT INTO results (mutantname, labelclass) VALUES
  ('U63C U70A', 'class 0'),
  ('G54U C65A', 'class 1'),
  ('G1A U7G', 'class 0'),
  ('A28G A39U', 'class 1'),
  ('A49U U60A', 'class 1'),
  ('U8G G40A', 'class 1'),
  ('C18U C65A', 'class 1'),
  ('A39G G68A', 'class 0'),
  ('G34C U70G', 'class 1'),
  ('U8A C65G', 'class 0'),
  ('C37U G42C', 'class 1'),
  ('C38U A64U', 'class 1'),
  ('U9C U52G', 'class 1'),
  ('A30C G51U', 'class 0'),
  ('A41U G57C', 'class 0'),
  ('C4A G54A', 'class 0'),
  ('A36U A43U', 'class 0'),
  ('G40U U62G', 'class 0'),
  ('C18U A64C', 'class 1'),
  ('C12A G42A', 'class 0'),
  ('U8A G32U', 'class 0'),
  ('U14G A28U', 'class 1'),
  ('U14A A71G', 'class 1'),
  ('U8A G13A', 'class 1'),
  ('U9G U20C', 'class 1'),
  ('G34A U70A', 'class 1'),
  ('U33A A43C', 'class 1'),
  ('A22G C38U', 'class 1'),
  ('C10A G42C', 'class 1'),
  ('G17A U52G', 'class 1'),
  ('A23C C50G', 'class 1'),
  ('A64C U67C', 'class 0'),
  ('U53G U62C', 'class 1'),
  ('G40A A71C', 'class 1'),
  ('A39U A41G', 'class 1'),
  ('A26U C66G', 'class 0'),
  ('U62A A71U', 'class 0'),
  ('C38A A61U', 'class 0'),
  ('U7G G56C', 'class 0'),
  ('A26G G54U', 'class 1'),
  ('U52C G56C', 'class 0'),
  ('A26C U62C', 'class 1'),
  ('C4U U52A', 'class 1'),
  ('C37A A71U', 'class 1'),
  ('G29U U60A', 'class 0'),
  ('G1A G13C', 'class 0'),
  ('A26G A31U', 'class 0'),
  ('U33A A61C', 'class 0'),
  ('G19U U62A', 'class 1'),
  ('C16A U63G', 'class 1'),
  ('G29U U67C', 'class 0'),
  ('C12U A64U', 'class 1'),
  ('G19C A31U', 'class 0'),
  ('A61U C66A', 'class 0'),
  ('G13A C65A', 'class 1'),
  ('A11C U70G', 'class 1'),
  ('C37G A61C', 'class 0'),
  ('U62G U67A', 'class 1');
